# Test system: BT474 (human breast carcinoma)
# EXPERIMENT DESCRIPTION: Methylene Blue Growth Inhibition Assay
# Assay type: cell-based
# ASSAY CONTEXT: BT-474, 72 h, BT474, 3 days incubation
Structures can show the parent of a compound that is named as a salt.
compounds and their reported log10 IC50
For clarity, the numbers are log10 values of IC50 expressed in nM.

COMPOUND	log10 IC50
CCn1c(-c2nonc2N)nc2c(C#CC(C)(C)O)ncc(OCC3CCNC3)c21 (stereo not drawn) [Example 5, bis-trifluoroacetic acid salt]	3.01
CCn1c(-c2nonc2N)nc2c(C#CC(C)(C)O)ncc(OC[C@H]3CNCCO3)c21	3.00
CCn1c(-c2nonc2N)nc2c(C#CC(C)(C)O)ncc(OC[C@H]3CCCNC3)c21	2.68

QUERY: Reported log10 IC50 for CCn1c(-c2nonc2N)nc2c(C#CC(C)(C)O)ncc(OC[C@H]3CCCN(C)C3)c21 [Example 6, dihydrochloride] : what is it?
RESULT: 2.51

QUERY: Entry CCn1c(-c2nonc2N)nc2c(C#CC(C)(C)O)ncc(OC[C@@H]3CNCCO3)c21 please
RESULT: 1.57

QUERY: Entry CCn1c(-c2nonc2N)nc2c(C#CC(C)(C)O)ncc(OC[C@@H]3CN(C)CCS3)c21 (single isomer, unassigned; enantiomer e1) please
RESULT: 2.27

QUERY: Entry CCn1c(-c2nonc2N)nc2c(C#CC(C)(C)O)ncc(OCC3CNCC(C)O3)c21 (stereo in doubt) [Example 9, dihydrochloride] please
RESULT: 1.90

QUERY: Entry CCn1c(-c2nonc2N)nc2c(C#CC(C)(C)O)ncc(OC[C@@H]3CN(C)CCO3)c21 please
RESULT: 2.82

QUERY: Entry CCn1c(-c2nonc2N)nc2c(C#CC(C)(C)O)ncc(OC[C@@H]3CNCCS3)c21 (single isomer, unassigned; enantiomer e1) [Example 3, dihydrochloride] please
RESULT: 0.78
